Data provenance is PubChem BioAssay (NCI).

Test system: NCI-H522 lung
Experiment: NCI-60 one-dose screen, 48 h
Details: 10 µM unless noted
About 83,000 compounds went through this panel and 20% of them were active in at least one assay; those are over-represented in the sample as a whole. Active and inactive are the calls of the source. How the source made its calls: active means growth percent below 10; inactive means the rest.
Labels: active, inactive

| compound | tgt | classification |
| --- | --- | --- |
| COC1=CC(c2ccc[nH]2)=N/C1=C\c1[nH]c(C)c(C(=O)Oc2ccccc2)c1C | NCI-H522 lung | active |
| COC(=O)N/N=C/c1c[n+]([O-])c2ccccc2[n+]1[O-] | NCI-H522 lung | inactive |
| COc1ccc(-c2cc(-c3cccnc3)nc3sc4c(Cl)nnnc4c23)cc1OC | NCI-H522 lung | inactive |
| CCCCC#Cc1c(/C=C(\CCCC)SCC)n(C)c(=O)[nH]c1=O | NCI-H522 lung | inactive |
| O=C1C(N2CCOCC2)=C(I)C(=O)c2ncccc21 | NCI-H522 lung | inactive |
| Cc1ccc(-c2nc(C#N)c(S(=O)(=O)N(C)C)o2)cc1 | NCI-H522 lung | active |
| CCCCC1=C(Br)C(=O)c2nc(C)ccc2C1=O | NCI-H522 lung | inactive |
| CCN1C(=O)N(c2ccccc2)C2NC(=S)N(/N=C/C=C/c3ccccc3)C21 (stereo not given) | NCI-H522 lung | inactive |
| Nc1ccc(/C=N/Nc2ccnc3c(N)cccc23)c2cccnc12 | NCI-H522 lung | active |
| COc1ccc(/C=C/C(=O)c2cc3c(N)c(C(=O)Nc4ccccc4)sc3nc2C)cc1 | NCI-H522 lung | active |
| O=C(Nc1ccc2ncsc2c1)c1csc(Nc2ccc3[nH]ncc3c2)n1 | NCI-H522 lung | inactive |
| COc1ccc(CN2CCc3c(Cl)nc(N)nc3C2=O)c(OC)c1 | NCI-H522 lung | inactive |
| COc1ccc(Cl)cc1Nc1nc(C(F)(F)F)ccc1C(=O)N/N=C/c1ccc(N(C)C)cc1 | NCI-H522 lung | inactive |
| C=C1CCC2C3(C)COC(c4ccc(NC(C)=O)cc4)OC3CCC2(C)C1C/C=C1/C(=O)OCC1O (stereo not given) | NCI-H522 lung | inactive |
| C[C@]12CCc3c(ccc4cc(O)ccc34)[C@@H]1C[C@H](O)[C@@H]2O | NCI-H522 lung | inactive |
| CCN(CC)/C([O-])=c1\cccc\c1=C1\N=C(c2ccccc2)N=C1[n+]1ccc(-c2ccccc2)cc1 | NCI-H522 lung | inactive |
| COc1cc(NS(=O)(=O)C(C)C)cc(-c2cc(-c3ccc(N4CCNCC4)cc3)cnc2N)c1 | NCI-H522 lung | inactive |
| COc1ccc(-c2ccc(-c3ccc(C(=N)N)cn3)o2)cc1Cl | NCI-H522 lung | inactive |
| CCCCCCCCCCCCCCCC(=O)O[C@@H]1[C@@H](O)[C@@H](O)C([C@H](NC(=O)[C@@H]2C[C@@H](CCC)CN2C)[C@H](C)Cl)O[C@@H]1SC (stereo not given in full) | NCI-H522 lung | inactive |
| OCc1cc(CN2CCCCC2)c(O)c2ncccc12 | NCI-H522 lung | inactive |

----------
Test system: NCI/ADR-RES ovarian
Assay: NCI-60 one-dose screen, 48 h
Settings: 10 µM unless noted
This is part of a sample that, as a whole, favours compounds with a hit. Of some 83,000 tested, about 20% had one in any assay. The source made the active and inactive calls. Rule for the calls: active = growth percent below 10; inactive = the rest.
Classes used: active, inactive

| molecule | classification |
| --- | --- |
| COC(=O)[C@H]1Cc2c([nH]c3ccccc23)[C@@H](c2cccs2)N1 | inactive |
| C=CCN1C=CC(=O)[C@H](O[Si](C)(C)C(C)(C)C)[C@@H]1/C=C/c1ccccc1 | active |
| COc1ccc(-c2ccccc2)cc1-c1c(Nc2cc(Cl)cc(Cl)c2O)c(=O)c1=O | active |
| N#Cc1ccccc1OCC(=O)Nc1nc2c(s1)COc1ccccc1-2 | inactive |
| Clc1nccc2c(-c3csc(-c4c[nH]c5ccc(Br)cc45)n3)c[nH]c12 | inactive |
| Nc1ccc(-c2nc3ccc4[nH]ncc4c3c3c2CCCC3)cc1F | inactive |
| CCCCCO/N=C\c1c2c(O)c3c(O)c(C)c4c(c3c1O)C(=O)C(C)(O/C=C\C(OC)C(C)C(OC(C)=O)C(C)C(O)C(C)C(O)C(C)/C=C\C=C(\C)C(=O)N2)O4 (configuration not stated) | inactive |
| Cc1nc(-n2[nH]c(=O)ccc2=O)sc1N=Nc1ccccc1 | inactive |
| COc1ccc2c(c1)c(C(=O)c1nc(-c3cn(C)c4ccccc34)no1)cn2C | inactive |
| c1ccc(Cc2cccc[n+]2C(c2ccccc2)c2ccccc2)cc1 | inactive |
| COc1cc(CO)cc2cc3ccccc3nc12 | inactive |
| CC[C@]1(O)CC2CN(CCc3c([nH]c4ccccc34)C(C(=O)OC)(c3cc4c(cc3OC)N(C=O)[C@H]3[C@@](O)(C(=O)OC)[C@H](OC(C)=O)[C@]5(CC)[C@@H]6C[C@@H]6CN6CC[C@]43[C@@H]65)C2)C1 (some centres not stated) | active |
| Cc1c(C(=O)OCCCCOC(=O)c2c(C)n(C)c3scc[n+]23)[n+]2ccsc2n1C | inactive |
| [Cu+].[NH-][C@H]1C[N-]C(=O)[C@H]([C@H]2CCN=C(N)N2)[N-]C(=O)/C(=C\NC(N)=O)[N-]C(=O)[C@H](CNC(=O)C[C@@H](N)CCCN)[N-]C(=O)[C@H](CO)[N-]C1=O | inactive |
| O=[N+]([O-])c1cc(C(F)(F)F)ccc1Sc1ccc(C(F)(F)F)cc1[N+](=O)[O-] | inactive |
| COc1ccc(/C=C/C(=O)c2cc3c(N)c(C(=O)Nc4ccccc4Cl)sc3nc2C)cc1 | inactive |
| CC1=C2[C@@H](CC1)[C@]1(C)O[C@@](C3CC3)(C[C@H]1OC(=O)CO)[C@H]2OC(=O)/C=C/c1ccccc1 | active |

----------
System: T-47D breast
Assay: NCI-60 one-dose screen, 48 h
Conditions: 10 µM unless noted
About 83,000 compounds went through this panel and 20% of them were active in at least one assay; those are over-represented in the sample as a whole. Calls of active or inactive are those of the source. The calls were made as follows: active = growth percent below 10; inactive = the rest.
Outcome codes: active, inactive

| molecule | classification |
| --- | --- |
| CCN1C(=S)N(CC)C2C1NC(=S)N2/N=C/C=C/c1ccccc1 (configuration not stated) | inactive |
| N=C1/C(=C2\NC3C=CC=CC3S2)C(c2ccc(Cl)cc2)C2C(=O)N(c3ccccc3)C(=S)N12 (configuration not stated) | inactive |
| N#Cc1cc(-c2ccnc(Nc3ccc(NC(=O)CCl)cc3)n2)ccc1N1CCCC1 | active |
| CON1CCC[C@]2(C)[C@H]3CC[C@@H]4[C@H]5[C@@H](O)C(C)(C)CC[C@]5(CO)CC[C@@]4(C)[C@]3(C)CC[C@H]2C1(C)C | inactive |
| CCOC(=O)CC1CSC(c2cccc(Cl)c2)=N1 (configuration not stated) | inactive |
| COc1ccc(-c2nnc3n(C)c(=O)c4ccccc4n23)cc1O | inactive |
| CS(=O)(=O)Nc1cc(-c2ccc3ncnc(Nc4ccc(F)c(Cl)c4)c3c2)cnc1Cl | active |
| Cc1ccc(-c2nc3nc(-c4ccc(F)cc4)nc(N4CCCNCC4)c3o2)cc1 | active |
| COc1ccc(/C(C)=C(\c2ccc(OCCN3CCCCCC3)cc2)c2ccc(OC(=O)C3CCCCC3)cc2)cc1 | active |
| C=C(CNCCc1ccc(O)cc1)[C@@H]1CC[C@]2(CO)CC[C@]3(C)[C@H](CC[C@@H]4[C@@]5(C)CCC(NCCc6ccc(O)cc6)C(C)(C)[C@@H]5CC[C@]43C)[C@@H]12 (some centres not stated) | active |
| CC1=CC=C(NC(=O)/C=C/c2ccccc2)CC1Nc1nccc(-c2cccnc2)n1 (configuration not stated) | inactive |
| CCCCCC#CC1OC23CCCCC2C(C#N)(C(=N)O3)C1(C#N)C#N (configuration not stated) | inactive |
| CCC(=O)Oc1cc(Cl)c(Cl)cc1Cl | inactive |
| C/C(=C(\c1ccc(OCCN2CCOCC2)cc1)c1ccc(OC(=O)C2CCCCC2)cc1)c1ccc(Cl)cc1 | inactive |
| CC(=O)OC[C@]12CCC(C)(C)C=C1[C@H]1CC[C@@H]3[C@@]4(C)CCCNC(C)(C)[C@@H]4CC[C@@]3(C)[C@]1(C)CC2 | inactive |
| O=C(NNC(=S)Nc1ccccc1)c1ccncc1 | inactive |
| O=C1/C(=C/c2ccccc2)CN(C(=O)C(Cl)Cl)C/C1=C\c1ccccc1 | inactive |
| O=C1c2cccc3cccc(c23)C(=O)N1N1C(=O)c2cccc3c(N4CCNCC4)ccc(c23)C1=O | inactive |
| CSc1nnc(-c2cc3c([nH]c4ccccc43)c(-c3cccc(O)c3)n2)n1-c1ccc(C)cc1 | inactive |
| Nc1nc(N)c2c(n1)NC(c1cccc(Nc3ccnc4cc(C(F)(F)F)ccc34)c1)CC(c1ccc(F)cc1)=N2 (configuration not stated) | inactive |
| CCOC(=O)c1cc2c(n1Cc1cc(OC)cc(OC)c1Br)-c1nc(NC(C)=O)sc1CCC2 | inactive |
| Cc1cccc(Cc2cnc(NC(=O)CCCOc3ccc(Cl)cc3)s2)c1 | inactive |
| O=C(NNc1ccccc1)C1CCCN1 (configuration not stated) | inactive |
| FC(F)(F)Sc1ccc(/C=C/c2cc(/C=C/c3ccc(SC(F)(F)F)cc3)n(-c3ccccc3)n2)cc1 | inactive |
| COc1ccc(Nc2ncnc3ccc(-c4cncc(NS(C)(=O)=O)c4)cc23)cc1Cl | active |
| N#Cc1ccccc1-c1ccc(Cn2c(-c3cscn3)nc3c(Cl)cccc32)cc1 | inactive |
| NS(=O)(=O)c1ccc(C(=O)N=Nc2c(O)[nH]c3c(F)cccc23)cc1 | inactive |
| COC(=O)c1[nH]nc(OC)c1C1(C(C#N)c2nc3ccccc3s2)CCCc2ccccc21 (configuration not stated) | inactive |
| N#CC(Cc1cccc2ccccc12)c1cc2ccccc2[nH]1 (configuration not stated) | inactive |
| CCN1CCN(C(=O)[C@]23CC[C@@H](C)[C@H](C)[C@@H]2C2=CC[C@@H]4[C@@]5(C)CCC(=O)C(C)(C)[C@@H]5CC[C@@]4(C)[C@]2(C)CC3)CC1 | active |
| Cc1ccc(/C=C/c2c(C(=O)/C=C/c3ccccc3)c(C)nc3ccccc23)cc1 | inactive |
| CCCCCCCCCCCCCCCC(=O)O[C@@H]1[C@@H](O)[C@@H](O)C([C@H](NC(=O)[C@@H]2C[C@@H](CCC)CN2C)[C@H](C)Cl)O[C@@H]1SC (some centres not stated) | inactive |
| COc1c(O)c(O)cc2c3c(oc12)CC(c1ccc2c(c1)OCO2)CC3=O (configuration not stated) | inactive |
| O=C(N=Nc1c(O)[nH]c2ccccc12)Nc1ccccc1Cl | inactive |
| CCOC(=O)c1c(-c2ccc(OC)cc2)c(C#N)c2c(C#N)c(N)nn2c1N | inactive |
| COc1cc(/C=C(/c2ccccc2)[N+](=O)[O-])c(OC)c2c1OCO2 | active |
| BrC1=C(Br)C(Br)(Br)C(Br)=C1Br | inactive |
